# credit: paper PMC10779116

// Cell ratio (%) CC50 lookup, one value per entry
# Tested on: U2OS cells
# ASSAY EXPLANATION: Host cell cytotoxicity (cell ratio) in the T. cruzi assay
# Assay type: cell-based, Human
# MEASUREMENT CONDITIONS: number of U2OS host cells in T. cruzi assay, 3 days
# Procedure: Human osteosarcoma cell line U2OS (ATCC HTB-96) and rhesus monkey kidney epithelial cell LLM-MK2 (ATCC CCL-7) were purchased from the American Type Culture Collection (ATCC, Manassas, VA, USA). […] The acquired images were analyzed with Columbus software (v2.3) (PerkinElmer) to quantify cell numbers, parasites numbers, and infection ratio. […] The activity of the tested samples was determined in terms of IC50 and CC50 calculated with XLfit software (v5) (IDBS, Boston, MA, USA). […]
Output spec: scalar in µM, unitless text.

COMPOUND: CC1N(C)C(CCCN(O)C(=O)CCNC(=O)CNC(=O)C2COC(c3ccccc3O)=N2)C(=O)N1C1CCCN(O)C1=O (centres unmarked) [D1 (4), madurastatin D1]
ENDPOINT UNIT: µM
Cell ratio (%) CC50: 46.77

Now look at this one.
Query: What does the data say about its Cell ratio (%) CC50? Entry: CN1C(CCCN(O)C(=O)CCNC(=O)CNC(=O)C2COC(c3ccccc3O)=N2)C(=O)N(C2CCCN(O)C2=O)C1(C)C (centres unmarked) [D2 (5), madurastatin D2]
Reply: 24.74

###

# System: U2OS cells
# ASSAY EXPLANATION: Host cell cytotoxicity (cell ratio) in the T. cruzi assay
# Format: cell-based, Human
# MEASUREMENT CONDITIONS: number of U2OS host cells in T. cruzi assay, 3 days
Item-by-item account of Cell ratio (%) CC50

COMPOUND: CN1[C@@H](CCCN(O)C(=O)CCNC(=O)CNC(=O)[C@@H](CO)NC(=O)c2ccccc2O)C(=O)N([C@H]2CCCN(O)C2=O)C1(C)C
Cell ratio (%) CC50: >50 µM

COMPOUND: CNC(CCCN(O)C(=O)CCNC(=O)CNC(=O)C1COC(c2ccccc2O)=N1)C(=O)NC1CCCN(O)C1=O (stereo not drawn)
Cell ratio (%) CC50: >50 µM

Query: Report Cell ratio (%) CC50 for C[C@@H]1N(C)[C@@H](CCCN(O)C(=O)CCNC(=O)CNC(=O)[C@H]2COC(c3ccccc3O)=N2)C(=O)N1[C@H]1CCCN(O)C1=O [33-epi D1 (3), 33-epi-madurastatin D1] tested on U2OS cells.
Reply: >50 µM
